Tested on: MMP-14
Construct: purchased antibodies.com
procedure_details: Peptide degradation with added exogenous recombinant MMP-14 (LC-MS)
Assay type: in vitro ADME
condition_info: human, cells or culture medium, peptide remaining in hUVEC conditioned media with added MMP‐14
Where a SMILES comes first, the peptide text is derived from it. [ ]: non-standard residue; d: D form. βAla = NCCC(=O)O
measure: remaining at 24 h, 50 µM
Please answer using a numeric value trailed by its unit.

Query string: Reported remaining at 24 h, 50 µM, molecule CSCC[C@H](NC(=O)[C@H](CC(C)C)NC(=O)[C@H](CC(=O)O)NC(=O)[C@H](C)NC(=O)[C@@H](NC(=O)[C@H](CC(C)C)NC(=O)[C@H](CCCCN)NC(=O)CCNC(C)=O)C(C)C)C(=O)N[C@@H](C)C(=O)N[C@@H](CO)C(=O)N[C@@H](C)C(=O)N[C@@H](CCC(=O)O)C(=O)NCCC(N)=O [KLVAD-LM] (Ac-[βAla]KLVADLMASAE[βAla]-NH2) : ____
Result string: 69%

* * *

procedure_details: Soluble peptide degradation, Media condition (cell-conditioned media, LC-MS)
Format: in vitro ADME, human
condition_info: human; Figure 2B heatmap; pooled TAILS-derived soluble peptides in 24 h hMSC-conditioned media without cells; 24 h; LC-MS, ratio to βFβA6 internal standard, 24 h / 0 h; N = 5; read-out: Fraction of peptide remaining at 24 hours: hMSC Media
Where a SMILES comes first, the peptide text is derived from it. [ ]: non-standard residue; d: D form. βAla = NCCC(=O)O
measure: remaining at 24 h (%)
Return type: number; implicit unit %.

Some compounds with known remaining at 24 h results, for comparison:
CSCC[C@H](NC(=O)[C@H](CCC(=O)O)NC(=O)CNC(=O)[C@H](Cc1ccccc1)NC(=O)[C@H](CO)NC(=O)[C@H](Cc1ccc(O)cc1)NC(=O)[C@@H](NC(=O)[C@H](CCC(=O)O)NC(=O)CCNC(C)=O)C(C)C)C(=O)N1CCC[C@H]1C(=O)N[C@@H](Cc1c[nH]c2ccccc12)C(=O)NCCC(N)=O [EVYSFGEMPW] (Ac-[βAla]EVYSFGEMPW[βAla]-NH2) | 78
CC(=O)NCCC(=O)N[C@@H](CCCCN)C(=O)N[C@@H](CC(C)C)C(=O)N[C@H](C(=O)N[C@@H](C)C(=O)N[C@@H](CC(=O)O)C(=O)N[C@@H](CC(N)=O)C(=O)N[C@@H](Cc1ccc(O)cc1)C(=O)N[C@@H](C)C(=O)N[C@@H](CO)C(=O)N[C@@H](C)C(=O)N[C@@H](CCC(=O)O)C(=O)NCCC(N)=O)C(C)C [KLVAD-NY] (Ac-[βAla]KLVADNYASAE[βAla]-NH2) | 97
CC(=O)NCCC(=O)N[C@@H](CCCCN)C(=O)N[C@@H](C)C(=O)N1CCC[C@H]1C(=O)NCC(=O)NCC(=O)N[C@@H](CCCCN)C(=O)N[C@@H](C)C(=O)N[C@@H](C)C(=O)NCC(=O)N1CCC[C@H]1C(=O)N[C@@H](C)C(=O)NCCC(N)=O [KAPGGKAAGPA] (Ac-[βAla]KAPGGKAAGPA[βAla]-NH2) | 95
CC[C@H](C)[C@H](NC(=O)[C@H](Cc1c[nH]cn1)NC(=O)[C@H](CCC(=O)O)NC(=O)[C@@H]1CCCN1C(=O)[C@H](Cc1ccccc1)NC(=O)[C@H](CC(N)=O)NC(=O)CCNC(C)=O)C(=O)N[C@@H](Cc1ccccc1)C(=O)N1CCC[C@H]1C(=O)N[C@@H](C)C(=O)N[C@@H](CC(C)C)C(=O)N[C@@H](C)C(=O)NCCC(N)=O [NFPEHIFPALA] (Ac-[βAla]NFPEHIFPALA[βAla]-NH2) | 92

In the following, a different compound is considered.
Query string: Reported remaining at 24 h, compound CC[C@H](C)[C@H](NC(=O)CCNC(C)=O)C(=O)N[C@H](C(=O)N[C@@H](CCCCN)C(=O)N[C@H](C(=O)N[C@@H](CC(=O)O)C(=O)N[C@H](C(=O)N1CCC[C@H]1C(=O)N[C@@H](CC(=O)O)C(=O)N[C@@H](CCSC)C(=O)N[C@H](C(=O)NCCC(N)=O)C(C)C)[C@@H](C)CC)[C@@H](C)O)C(C)C [IVKTDIPDMV] (Ac-[βAla]IVKTDIPDMV[βAla]-NH2) : ____
Result string: 101

* * *

procedure_details: Soluble peptide degradation, Cells condition (LC-MS)
Type: in vitro ADME, human
condition_info: human, hUVECs in culture with fresh media (Cells condition); Figure 3B heatmap; split-and-pool libraries KLVADX1X2ASAE in media on hUVECs; 24 h; LC-MS, ratio to βFβA6; N = 2; read-out: Fraction of peptide remaining after 24 hours: hUVEC Cells
Where a SMILES comes first, the peptide text is derived from it. [ ]: non-standard residue; d: D form. βAla = NCCC(=O)O
measure: remaining at 24 h (%)
Return type: number; implicit unit %.

Some compounds with known remaining at 24 h results, for comparison:
CC(=O)NCCC(=O)N[C@@H](CCCCN)C(=O)N[C@@H](CC(C)C)C(=O)N[C@H](C(=O)N[C@@H](C)C(=O)N[C@@H](CC(=O)O)C(=O)N[C@@H](CC(C)C)C(=O)N[C@@H](CC(C)C)C(=O)N[C@@H](C)C(=O)N[C@@H](CO)C(=O)N[C@@H](C)C(=O)N[C@@H](CCC(=O)O)C(=O)NCCC(N)=O)C(C)C [Leu-Leu] (Ac-[βAla]KLVADLLASAE[βAla]-NH2) | 91
CC(=O)NCCC(=O)N[C@@H](CCCCN)C(=O)N[C@@H](CC(C)C)C(=O)N[C@H](C(=O)N[C@@H](C)C(=O)N[C@@H](CC(=O)O)C(=O)NCC(=O)N[C@@H](Cc1ccc(O)cc1)C(=O)N[C@@H](C)C(=O)N[C@@H](CO)C(=O)N[C@@H](C)C(=O)N[C@@H](CCC(=O)O)C(=O)NCCC(N)=O)C(C)C [Gly-Tyr] (Ac-[βAla]KLVADGYASAE[βAla]-NH2) | 88
CC(=O)NCCC(=O)N[C@@H](CCCCN)C(=O)N[C@@H](CC(C)C)C(=O)N[C@H](C(=O)N[C@@H](C)C(=O)N[C@@H](CC(=O)O)C(=O)N1CCC[C@H]1C(=O)N[C@@H](Cc1c[nH]c2ccccc12)C(=O)N[C@@H](C)C(=O)N[C@@H](CO)C(=O)N[C@@H](C)C(=O)N[C@@H](CCC(=O)O)C(=O)NCCC(N)=O)C(C)C [Pro-Trp] (Ac-[βAla]KLVADPWASAE[βAla]-NH2) | 81
CC(=O)NCCC(=O)N[C@@H](CCCCN)C(=O)N[C@@H](CC(C)C)C(=O)N[C@H](C(=O)N[C@@H](C)C(=O)N[C@@H](CC(=O)O)C(=O)N[C@@H](Cc1ccc(O)cc1)C(=O)N1CCC[C@H]1C(=O)N[C@@H](C)C(=O)N[C@@H](CO)C(=O)N[C@@H](C)C(=O)N[C@@H](CCC(=O)O)C(=O)NCCC(N)=O)C(C)C [Tyr-Pro] (Ac-[βAla]KLVADYPASAE[βAla]-NH2) | 89
CC[C@H](C)[C@H](NC(=O)[C@H](Cc1ccc(O)cc1)NC(=O)[C@H](CC(=O)O)NC(=O)[C@H](C)NC(=O)[C@@H](NC(=O)[C@H](CC(C)C)NC(=O)[C@H](CCCCN)NC(=O)CCNC(C)=O)C(C)C)C(=O)N[C@@H](C)C(=O)N[C@@H](CO)C(=O)N[C@@H](C)C(=O)N[C@@H](CCC(=O)O)C(=O)NCCC(N)=O [Tyr-Ile] (Ac-[βAla]KLVADYIASAE[βAla]-NH2) | 86

Query string: Reported remaining at 24 h, compound CC(=O)NCCC(=O)N[C@@H](CCCCN)C(=O)N[C@@H](CC(C)C)C(=O)N[C@H](C(=O)N[C@@H](C)C(=O)N[C@@H](CC(=O)O)C(=O)N1CCC[C@H]1C(=O)N[C@@H](Cc1ccccc1)C(=O)N[C@@H](C)C(=O)N[C@@H](CO)C(=O)N[C@@H](C)C(=O)N[C@@H](CCC(=O)O)C(=O)NCCC(N)=O)C(C)C [Pro-Phe] (Ac-[βAla]KLVADPFASAE[βAla]-NH2) : ____
Result string: 84

* * *

procedure_details: Soluble peptide degradation, Cells condition (LC-MS)
Format: in vitro ADME, human
condition_info: human, hMSCs in culture with fresh media (Cells condition); Figure 3B heatmap; split-and-pool libraries KLVADX1X2ASAE (19 or 38 peptides per library) in media on hMSCs; 24 h; LC-MS, ratio to βFβA6; N = 2; read-out: Fraction of peptide remaining after 24 hours: hMSC Cells
Where a SMILES comes first, the peptide text is derived from it. [ ]: non-standard residue; d: D form. βAla = NCCC(=O)O
measure: remaining at 24 h (%)
Return type: number; implicit unit %.

Some compounds with known remaining at 24 h results, for comparison:
CC(=O)NCCC(=O)N[C@@H](CCCCN)C(=O)N[C@@H](CC(C)C)C(=O)N[C@H](C(=O)N[C@@H](C)C(=O)N[C@@H](CC(=O)O)C(=O)N[C@@H](CO)C(=O)N[C@@H](CC(=O)O)C(=O)N[C@@H](C)C(=O)N[C@@H](CO)C(=O)N[C@@H](C)C(=O)N[C@@H](CCC(=O)O)C(=O)NCCC(N)=O)C(C)C [Ser-Asp] (Ac-[βAla]KLVADSDASAE[βAla]-NH2) | 48
CC(=O)NCCC(=O)N[C@@H](CCCCN)C(=O)N[C@@H](CC(C)C)C(=O)N[C@H](C(=O)N[C@@H](C)C(=O)N[C@@H](CC(=O)O)C(=O)N[C@@H](CCC(=O)O)C(=O)N1CCC[C@H]1C(=O)N[C@@H](C)C(=O)N[C@@H](CO)C(=O)N[C@@H](C)C(=O)N[C@@H](CCC(=O)O)C(=O)NCCC(N)=O)C(C)C [Glu-Pro] (Ac-[βAla]KLVADEPASAE[βAla]-NH2) | 49

In the following, a different compound is considered.
Query string: Reported remaining at 24 h, compound CC(=O)NCCC(=O)N[C@@H](CCCCN)C(=O)N[C@@H](CC(C)C)C(=O)N[C@H](C(=O)N[C@@H](C)C(=O)N[C@@H](CC(=O)O)C(=O)N[C@@H](CC(=O)O)C(=O)N[C@@H](CCC(N)=O)C(=O)N[C@@H](C)C(=O)N[C@@H](CO)C(=O)N[C@@H](C)C(=O)N[C@@H](CCC(=O)O)C(=O)NCCC(N)=O)C(C)C [Asp-Gln] (Ac-[βAla]KLVADDQASAE[βAla]-NH2) : ____
Result string: 39
